Where these numbers come from: patent US5017604A

Biological target: 5-lipoxygenase (Rattus norvegicus)
Construct: host or cells: RBL-1 (rat basophilic leukemia) cells
Sequence (P12527 1-673): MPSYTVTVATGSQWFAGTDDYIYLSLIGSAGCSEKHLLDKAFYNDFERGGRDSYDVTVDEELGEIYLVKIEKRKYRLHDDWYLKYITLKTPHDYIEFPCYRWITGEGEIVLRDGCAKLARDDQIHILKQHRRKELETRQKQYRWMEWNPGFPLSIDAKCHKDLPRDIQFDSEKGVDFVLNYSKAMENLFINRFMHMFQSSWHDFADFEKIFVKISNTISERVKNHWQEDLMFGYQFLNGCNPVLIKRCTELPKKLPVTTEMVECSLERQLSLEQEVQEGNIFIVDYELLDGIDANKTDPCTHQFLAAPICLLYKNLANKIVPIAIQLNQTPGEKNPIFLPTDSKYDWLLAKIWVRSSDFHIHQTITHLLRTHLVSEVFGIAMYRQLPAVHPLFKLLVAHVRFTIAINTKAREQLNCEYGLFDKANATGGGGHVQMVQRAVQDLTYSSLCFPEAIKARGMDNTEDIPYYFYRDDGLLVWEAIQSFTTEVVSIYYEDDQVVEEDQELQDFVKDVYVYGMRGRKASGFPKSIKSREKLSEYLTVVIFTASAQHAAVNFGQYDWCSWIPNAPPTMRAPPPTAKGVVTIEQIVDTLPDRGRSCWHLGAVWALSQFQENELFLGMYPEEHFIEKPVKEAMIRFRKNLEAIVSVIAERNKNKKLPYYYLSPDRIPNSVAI
Assay: ARBL whole cell 5-lipoxygenase assay (RBL-1 cells, LTB4 formation by RIA)
Type: cell-based
Details: RBL-1 whole cells; @ 16 μM; read-out: ARBL % inhibition at the given micromolar concentration (LTB4 formation)
propertyLabel: inhibition at 16 µM (%)

CCOC(=O)N(O)C(C)c1ccc(C)c(Nc2ccccc2C(=O)OC)c1C (stereo not shown) : 100

I. CCOC(=O)N(O)Cc1ccc(Cl)c(Nc2ccccc2C(=O)O)c1Cl
II. COC(=O)c1ccccc1Nc1c(C)ccc(C(C)N(O)C(C)=O)c1C (stereo not shown)
# input // returns I or II , whichever has the lower inhibition at 16 µM Please respond with the label that marks your chosen entry.
# output I
